- Target under test: Ras-related C3 botulinum toxin substrate 1 (Homo sapiens) (UniProt P63000)
- Procedure details: compounds altering fluorescent GTP loading on wildtype Rac1 – biochemical, GST-Rac1 beads, flow cytometry, multiplex, primary screen (AID 757)
- Protocol conditions: at 10 µM, actives lie on both sides, 0 = cold GTP competed, 100 = untreated
Screen size: about 190,000 compounds; about 520 (0.27%) were called active. About 2% were inconclusive and are not listed. The list comes from a sample in which actives are over-represented; it also holds close analogues and randomly drawn compounds.
Metric: GTP binding activity (% of control) (%)

Molecule: O=C(Nn1cnc2ccccc2c1=O)c1ccc([N+](=O)[O-])cc1Cl
Metric: GTP binding activity (% of control)
Reported value: 96
//
Molecule: COc1ccc(C2(CNC(=O)Cc3ccc(OC)c(OC)c3)CCCC2)cc1
Metric: GTP binding activity (% of control)
Reported value: 97
//
Molecule: CC(=O)c1ccc(-c2nnc(CCC(=O)N(C)Cc3cnc4ccccn34)o2)s1
Metric: GTP binding activity (% of control)
Reported value: 92
//
Molecule: COc1cccc(OCCCN2CCCCCC2)c1
Metric: GTP binding activity (% of control)
Reported value: 95
//
Molecule: CC1CCC2(CC1)NC(=O)N(Cc1nnc(-c3cccs3)o1)C2=O (stereo unspecified)
Metric: GTP binding activity (% of control)
Reported value: 94
//
Molecule: COc1cccc(NC(=O)c2ccc(S(=O)(=O)N(C)C)cc2)c1
Metric: GTP binding activity (% of control)
Reported value: 104
//
Molecule: O=C(Nc1cccc(CCc2ccccn2)c1)c1ccc(Cl)cc1
Metric: GTP binding activity (% of control)
Reported value: 97
//
Molecule: O=C1c2oc3ccccc3c(=O)c2C(c2cccc(O)c2)N1c1ccccn1 (stereo unspecified)
Metric: GTP binding activity (% of control)
Reported value: 106
//
Molecule: CNC(=S)Nc1ccc([N+](=O)[O-])cc1
Metric: GTP binding activity (% of control)
Reported value: 101
//
Molecule: O=C(NCCCN1CCOCC1)c1ccc(N2CCCC2)c([N+](=O)[O-])c1
Metric: GTP binding activity (% of control)
Reported value: 99
//
Molecule: Cc1cc(NC(=O)CN2C(=O)NC(CCc3ccccc3)C2=O)no1 (stereo unspecified)
Metric: GTP binding activity (% of control)
Reported value: 100
